- assayDetails: self-splicing fitness, log relative to wild type (ln ratio); higher = more splicing; Tetrahymena group I intron in knt gene, E. coli kanamycin selection, DiMSum; sequences stand for … in CUCUCU…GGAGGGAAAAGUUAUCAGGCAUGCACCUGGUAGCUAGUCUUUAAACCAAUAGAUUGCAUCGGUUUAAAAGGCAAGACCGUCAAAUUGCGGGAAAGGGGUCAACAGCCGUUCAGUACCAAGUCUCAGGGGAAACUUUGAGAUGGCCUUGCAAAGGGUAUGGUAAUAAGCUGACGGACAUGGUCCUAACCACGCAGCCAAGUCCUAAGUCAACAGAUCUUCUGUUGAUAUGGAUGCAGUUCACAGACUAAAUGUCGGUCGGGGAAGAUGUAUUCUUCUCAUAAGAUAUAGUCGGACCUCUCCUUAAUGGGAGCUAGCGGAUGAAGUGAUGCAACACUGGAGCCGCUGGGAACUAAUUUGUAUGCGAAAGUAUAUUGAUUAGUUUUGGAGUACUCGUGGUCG;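 note: selection with 25 µg/mL kanamycin versus none on LB agar overnight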
- measurementParameters: 37 °C
Entry class follows self-splicing fitness (ln): low range: < -2; mid range: ≥ -2 and < -0.8; high range: ≥ -0.8

# count of solved cases: 10
[[record]]
residuecodes = "CCCCAGCAAUAUUACGCUCG"
categorylabel = "low range"

[[record]]
residuecodes = "GGCGAGCAAUAUUACGCAUA"
categorylabel = "mid range"

[[record]]
residuecodes = "UAUAAGCAAUAUUACGAUCG"
categorylabel = "high range"

[[record]]
residuecodes = "UUGUAGCAAUAUUACGAUCC"
categorylabel = "high range"

[[record]]
residuecodes = "AGUGAGCAAUAUUACGUGAA"
categorylabel = "low range"

[[record]]
residuecodes = "CGUCAGCAAUAUUACGCAGU"
categorylabel = "low range"

[[record]]
residuecodes = "UUUAAGCAAUAUUACGCGUC"
categorylabel = "mid range"

[[record]]
residuecodes = "AAGGAGCAAUAUUACGGUUG"
categorylabel = "low range"

[[record]]
residuecodes = "UGGGAGCAAUAUUACGCUCG"
categorylabel = "mid range"

[[record]]
residuecodes = "CUUCAGCAAUAUUACGAAGU"
categorylabel = "low range"


Which class is correct for the following sequence? UCAGAGCAAUAUUACGCACU
low range

For this sequence, which bin applies? UUCCAGCAAUAUUACGAGGU
mid range

Returns: class label. Input: UAUUAGCAAUAUUACGGGUA
high range

Exercise: read the entry GUUCAGCAAUAUUACGGCAC and state which class it falls under.
high range

Any idea which band GAAAAGCAAUAUUACGCGUA is in?
mid range

Provenance of the data: the supplement of paper PMC7877785
